Attribution: paper PMC7824033

Tested on: C. albicans 527/14
Experiment: Microdilution assay, MIC and MFC
Format: cell-based
Settings: Candida albicans; C. albicans 527/14; mean ± SD of three replicates; read-out: MIC
quantity: MIC
Kindly report the value followed by its unit.

1) O=c1c(O[C@@H]2O[C@H](CO)[C@@H](O)[C@H](O)[C@H]2O)c(-c2ccc(O)c(O)c2)oc2cc(O)cc(O)c12    37.5 µg/mL
2) CC(=O)N1CCN(c2ccc(OCC3COC(Cn4ccnc4)(c4ccc(Cl)cc4Cl)O3)cc2)CC1 (stereo not drawn) [Ketoconazole, reference compound]    3.1 µg/mL
3) O=c1c(O)c(-c2ccc(O)c(O)c2)oc2cc(O)cc(O)c12    75 µg/mL

// returns reported MIC for input O=c1cc(-c2ccc(O)c(O)c2)oc2cc(O)cc(O)c12
37.5 µg/mL

And the next one, C[C@@H]1[C@H](O)[C@@H](C)/C=C/C=C/C=C/C=C/C=C/C=C/C=C/[C@H](O[C@@H]2O[C@H](C)[C@@H](O)[C@H](N)[C@@H]2O)C[C@@H]2O[C@](O)(C[C@@H](O)C[C@@H](O)[C@H](O)CC[C@@H](O)C[C@@H](O)CC(=O)O[C@H]1C)C[C@H](O)[C@H]2C(=O)O [Amphotericin B, amphotericin B, reference compound] ?
0.63 µg/mL

Try this molecule too: C[C@@H]1O[C@@H](OC[C@H]2O[C@@H](Oc3c(-c4ccc(O)c(O)c4)oc4cc(O)cc(O)c4c3=O)[C@H](O)[C@@H](O)[C@@H]2O)[C@H](O)[C@H](O)[C@H]1O
37.5 µg/mL

###

Assay: Cytotoxicity, Sulforhodamine B assay
Settings: pig
Method: Preparation of PLP2 cell line was performed with freshly harvested porcine liver supplied from a local slaughter house. Tissues from the liver were washed in Hank’s balanced salt solution comprising 100 U/mL penicillin and 100 μg/mL streptomycin and split into 1 × 1 mm^3 explants. […]
quantity: GI50

Example cases with answers are listed next.
1) Cc1c2ccncc2c(C)c2c1[nH]c1ccccc12 [Ellipticin, Ellipticine, reference compound]    3.22 µg/mL
2) C[C@@H]1O[C@@H](OC[C@H]2O[C@@H](Oc3c(-c4ccc(O)c(O)c4)oc4cc(O)cc(O)c4c3=O)[C@H](O)[C@@H](O)[C@@H]2O)[C@H](O)[C@H](O)[C@H]1O    > 400 µg/mL

Now consider the entry below.
Recorded GI50 for O=c1c(O)c(-c2ccc(O)c(O)c2)oc2cc(O)cc(O)c12 , please?
> 400 µg/mL
